System: 186277-243-T-J2-PDC complex spheroid growth, % test/control
assay.remarks: Anticancer human tumor 186277-243-T-J2-PDC patient-derived colon adenocarcinoma cell line growth inhibition [Asc]
condition.set: second compound 0.1 µM; first compound 0.949 µM; stronger effect = lower value
measure.name: viability, T/C (%)

| molecule | target.or.system | measure.unit | quantitative.result |
| --- | --- | --- | --- |
| CCN1C(C(=O)NC23CCC(C(=O)O)(CC2)CC3)C(c2cccc(Cl)c2F)C2(C(=O)Nc3cc(Cl)ccc32)C12CCCCC2 (centres undefined) + CNC(C)C(=O)NC1CN(S(=O)(=O)c2cccc(S(=O)(=O)N3CCC4CCC(C(=O)NC(c5ccccc5)c5ccccc5)N4C(=O)C(NC(=O)C(C)NC)C3)c2)CCC2CCC(C(=O)NC(c3ccccc3)c3ccccc3)N2C1=O | 186277-243-T-J2-PDC complex spheroid growth, % test/control | % | 76.5 |
| CCN1C(C(=O)NC23CCC(C(=O)O)(CC2)CC3)C(c2cccc(Cl)c2F)C2(C(=O)Nc3cc(Cl)ccc32)C12CCCCC2 (centres undefined) + Cc1c(S(C)(=O)=O)c(-c2cc(F)cc(N3CCN(c4ccc(NS(=O)(=O)c5ccc(NC(CCN6CCC(C(=O)OCCCP(=O)(O)O)CC6)CSc6ccccc6)c(S(=O)(=O)C(F)(F)F)c5)cc4)CC3)c2)c(-c2ccc(Cl)cc2)n1C(C)C | 186277-243-T-J2-PDC complex spheroid growth, % test/control | % | 47.5 |
| Cc1nc(N2CCC3(CC2)COC(C)C3N)c(CO)nc1Sc1ccnc(N)c1Cl (centres undefined) + Cc1c(S(C)(=O)=O)c(-c2cc(F)cc(N3CCN(c4ccc(NS(=O)(=O)c5ccc(NC(CCN6CCC(C(=O)OCCCP(=O)(O)O)CC6)CSc6ccccc6)c(S(=O)(=O)C(F)(F)F)c5)cc4)CC3)c2)c(-c2ccc(Cl)cc2)n1C(C)C | 186277-243-T-J2-PDC complex spheroid growth, % test/control | % | 98.1 |
| Cc1nc(N2CCC3(CC2)COC(C)C3N)c(CO)nc1Sc1ccnc(N)c1Cl (centres undefined) + CNC(C)C(=O)NC1CN(S(=O)(=O)c2cccc(S(=O)(=O)N3CCC4CCC(C(=O)NC(c5ccccc5)c5ccccc5)N4C(=O)C(NC(=O)C(C)NC)C3)c2)CCC2CCC(C(=O)NC(c3ccccc3)c3ccccc3)N2C1=O | 186277-243-T-J2-PDC complex spheroid growth, % test/control | % | 102 |

----------
Reported IC50 values are given for each entry in this list.
System: 186277-243-T-J2-PDC complex spheroid growth, % test/control
assay.remarks: Anticancer human tumor 186277-243-T-J2-PDC cell line growth inhibition [Asc];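 further: spheroids exposed to agents for 7 days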
condition.set: curve of compound

| molecule | IC50 |
| --- | --- |
| Cn1ncnc1[C@H]1c2n[nH]c(=O)c3cc(F)cc(c23)N[C@@H]1c1ccc(F)cc1 | > 100 nM |
| NC1CCC(NC2CC2c2ccccc2)CC1 (centres undefined) | > 100 nM |
| CNC(C)C(=O)NC1CN(S(=O)(=O)c2cccc(S(=O)(=O)N3CCC4CCC(C(=O)NC(c5ccccc5)c5ccccc5)N4C(=O)C(NC(=O)C(C)NC)C3)c2)CCC2CCC(C(=O)NC(c3ccccc3)c3ccccc3)N2C1=O (centres undefined) | > 1000 nM |
| C=CC(=O)N1CCN(c2nc(=O)n(-c3c(C)ccnc3C(C)C)c3nc(-c4c(O)cccc4F)c(F)cc23)C(C)C1 (centres undefined) | > 10000 nM |
